Hello, the source for this data is paper PMC3747596, in case you need it.

molecular target: D4 (Homo sapiens, UniProt P21917); test: Radioligand displacement, D4; type: binding; conditions: [3H] radioligand N-Methylspiperone; Human, Cloned; read-out: Ki
Sequence (P21917 whole entry): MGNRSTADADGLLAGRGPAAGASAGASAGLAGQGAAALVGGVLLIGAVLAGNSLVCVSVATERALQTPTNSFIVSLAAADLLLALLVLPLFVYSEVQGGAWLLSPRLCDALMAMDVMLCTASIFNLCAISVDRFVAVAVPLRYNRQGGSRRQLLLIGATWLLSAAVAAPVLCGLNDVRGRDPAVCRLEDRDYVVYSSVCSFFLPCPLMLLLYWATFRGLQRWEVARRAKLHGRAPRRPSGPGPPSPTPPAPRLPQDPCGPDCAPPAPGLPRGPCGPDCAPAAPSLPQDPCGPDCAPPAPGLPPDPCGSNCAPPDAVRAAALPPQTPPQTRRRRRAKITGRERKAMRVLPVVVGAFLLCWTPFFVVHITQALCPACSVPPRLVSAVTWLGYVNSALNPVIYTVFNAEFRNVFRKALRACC
pKi: −log10 of the molar value.
value-kind: pKi

Req: Look up pKi of CC(C)[C@@H](CN1CC[C@@](C)(c2cccc(O)c2)[C@@H](C)C1)NC(=O)[C@H]1Cc2ccc(O)cc2CN1 [JDTic] and report it.
Resp: ≤ 5.00

###

target: UniProt P25021; experiment: Radioligand displacement, H2; conditions: Ki, binding curve File S1; H2 Receptor; [3H]Tiotidine (3 nM); Histamine Binding Buffer
Sequence (P25021 whole entry): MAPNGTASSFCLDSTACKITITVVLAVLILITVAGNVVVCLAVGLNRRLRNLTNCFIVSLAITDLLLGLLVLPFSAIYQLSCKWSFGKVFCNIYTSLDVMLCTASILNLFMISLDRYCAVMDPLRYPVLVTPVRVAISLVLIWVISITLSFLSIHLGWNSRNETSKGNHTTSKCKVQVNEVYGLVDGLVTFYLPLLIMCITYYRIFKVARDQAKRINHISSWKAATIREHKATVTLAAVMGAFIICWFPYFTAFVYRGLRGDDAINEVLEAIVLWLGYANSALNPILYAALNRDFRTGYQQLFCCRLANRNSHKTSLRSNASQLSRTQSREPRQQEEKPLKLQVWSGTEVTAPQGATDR
value-kind: pKi
In simple prose, pKi is minus the logarithm base ten of a concentration in moles per litre.

Req: Look up pKi of CC(C)[C@@H](CN1CC[C@@](C)(c2cccc(O)c2)[C@@H](C)C1)NC(=O)[C@H]1Cc2ccc(O)cc2CN1 and report it.
Resp: 5.75

###

molecular target: α1B (Homo sapiens); assay: Radioligand displacement, α1B; format: binding; conditions: Ki, binding curve File S1 (GNTI page); Alpha1B Receptor; [125I]HEAT (0.05 nM)
Sequence (P35368 whole entry): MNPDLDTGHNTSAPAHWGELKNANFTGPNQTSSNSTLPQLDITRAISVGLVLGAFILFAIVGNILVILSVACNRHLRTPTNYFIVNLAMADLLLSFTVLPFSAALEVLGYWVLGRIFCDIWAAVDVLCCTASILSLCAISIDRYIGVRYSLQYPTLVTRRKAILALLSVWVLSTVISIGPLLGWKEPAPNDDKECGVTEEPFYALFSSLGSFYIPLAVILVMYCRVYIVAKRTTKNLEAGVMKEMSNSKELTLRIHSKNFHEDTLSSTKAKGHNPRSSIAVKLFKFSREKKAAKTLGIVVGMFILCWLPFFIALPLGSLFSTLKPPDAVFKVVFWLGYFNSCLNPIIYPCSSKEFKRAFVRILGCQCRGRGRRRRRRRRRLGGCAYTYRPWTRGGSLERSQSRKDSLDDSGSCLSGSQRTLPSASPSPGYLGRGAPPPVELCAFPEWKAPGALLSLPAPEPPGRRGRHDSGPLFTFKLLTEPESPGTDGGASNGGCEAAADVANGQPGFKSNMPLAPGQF
value-kind: Ki (µM)
Supply the numeric figure in µM, leaving out any unit text.

Req: Please indicate recorded Ki of N=C(N)Nc1ccc2[nH]c3c(c2c1)C[C@@]1(O)[C@H]2Cc4ccc(O)c5c4[C@@]1(CCN2CC1CC1)[C@H]3O5 measured with α1B (Homo sapiens).
Resp: 8.91

###

molecular target: UniProtKB P35368; assay: Radioligand displacement, α1B; type: binding; details: α1B; radioligand displacement (Table 1); read-out: K i
value-kind: Ki (µM)
Supply the numeric figure in µM, leaving out any unit text.

Req: Look up Ki of CC(C)[C@@H](CN1CC[C@@](C)(c2cccc(O)c2)[C@@H](C)C1)NC(=O)[C@H]1Cc2ccc(O)cc2CN1 and report it.
Resp: 4.8

###

target: UniProt:P11229; experiment: Radioligand displacement, M1; format: binding
Sequence (P11229 whole entry): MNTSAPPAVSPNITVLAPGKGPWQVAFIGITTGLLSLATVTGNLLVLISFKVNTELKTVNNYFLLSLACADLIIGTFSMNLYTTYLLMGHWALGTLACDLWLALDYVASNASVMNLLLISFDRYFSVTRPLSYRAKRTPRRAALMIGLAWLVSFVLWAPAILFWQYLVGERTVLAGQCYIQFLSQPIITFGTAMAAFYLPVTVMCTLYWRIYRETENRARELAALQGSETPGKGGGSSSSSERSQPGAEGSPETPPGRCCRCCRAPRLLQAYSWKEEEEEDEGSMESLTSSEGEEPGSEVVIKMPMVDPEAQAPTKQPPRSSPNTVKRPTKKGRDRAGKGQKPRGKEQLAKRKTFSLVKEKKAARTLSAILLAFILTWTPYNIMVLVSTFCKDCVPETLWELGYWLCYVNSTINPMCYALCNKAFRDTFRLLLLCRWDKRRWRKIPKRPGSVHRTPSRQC
For each record, write down the corresponding Ki.

Req: Look up Ki of N=C(N)Nc1ccc2[nH]c3c(c2c1)C[C@@]1(O)[C@H]2Cc4ccc(O)c5c4[C@@]1(CCN2CC1CC1)[C@H]3O5 and report it.
Resp: ≥ 10 µM

Req: Look up Ki of Oc1ccc2c3c1O[C@H]1c4[nH]c5c(c4C[C@@]4(O)[C@@H](C2)N(CC2CC2)CC[C@]314)C[C@@]1(O)[C@H]2Cc3ccc(O)c4c3[C@@]1(CCN2CC1CC1)[C@H]5O4 and report it.
Resp: ≥ 10 µM

###

biological target: UniProtKB P47898; experiment: Radioligand displacement, 5-HT5a; type: binding
Sequence (P47898 whole entry): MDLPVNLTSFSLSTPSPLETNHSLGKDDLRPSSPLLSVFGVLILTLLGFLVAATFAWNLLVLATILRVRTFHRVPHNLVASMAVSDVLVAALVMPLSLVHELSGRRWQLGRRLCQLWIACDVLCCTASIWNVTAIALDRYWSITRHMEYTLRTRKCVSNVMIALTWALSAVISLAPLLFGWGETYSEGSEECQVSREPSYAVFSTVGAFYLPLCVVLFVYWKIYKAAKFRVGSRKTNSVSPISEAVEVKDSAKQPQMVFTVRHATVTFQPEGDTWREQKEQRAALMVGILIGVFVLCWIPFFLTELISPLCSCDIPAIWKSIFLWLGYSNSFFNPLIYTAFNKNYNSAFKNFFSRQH
pKi: −log10 of the molar value.
value-kind: pKi

Req: Look up pKi of Oc1ccc2c3c1O[C@H]1c4[nH]c5c(c4C[C@@]4(O)[C@@H](C2)N(CC2CC2)CC[C@]314)C[C@@]1(O)[C@H]2Cc3ccc(O)c4c3[C@@]1(CCN2CC1CC1)[C@H]5O4 and report it.
Resp: ≤ 5.00

Req: Look up pKi of N=C(N)Nc1ccc2[nH]c3c(c2c1)C[C@@]1(O)[C@H]2Cc4ccc(O)c5c4[C@@]1(CCN2CC1CC1)[C@H]3O5 and report it.
Resp: ≤ 5.00

###

target: GABAA; experiment: Radioligand displacement, GABAA; details: [3H] radioligand Muscimol; Rat, forebrain
value-kind: Ki

Req: Look up Ki of Oc1ccc2c3c1O[C@H]1c4[nH]c5c(c4C[C@@]4(O)[C@@H](C2)N(CC2CC2)CC[C@]314)C[C@@]1(O)[C@H]2Cc3ccc(O)c4c3[C@@]1(CCN2CC1CC1)[C@H]5O4 and report it.
Resp: ≥ 10 µM

Req: Look up Ki of N=C(N)Nc1ccc2[nH]c3c(c2c1)C[C@@]1(O)[C@H]2Cc4ccc(O)c5c4[C@@]1(CCN2CC1CC1)[C@H]3O5 and report it.
Resp: ≥ 10 µM

Req: Look up Ki of CC(C)[C@@H](CN1CC[C@@](C)(c2cccc(O)c2)[C@@H](C)C1)NC(=O)[C@H]1Cc2ccc(O)cc2CN1 and report it.
Resp: ≥ 10 µM
